molecular target: PAR2 (HT-29 cells) (Homo sapiens); construct: host or cells: HT-29; test: Ca FLIPR TETRA assay, ANTAGONIST mode, activator 8 μM SLIGKV; assay type: cell-based; conditions: HT-29 cells, activator 8 μM SLIGKV; maximal antagonist concentration per Method (A: 0.1, 1 or 2 μM; B: 50 μM)
In this section we review reported IC50 values for a set of compounds.
Number in nM, nothing else.

[
  {
    "Compound": "Cc1nn(C)cc1S(=O)(=O)N1CCN(C(=O)c2cc3nc(-c4ccc(F)cc4)cc(C(C)C)c3o2)C(C)(C)C1",
    "IC50 [nM]": 13
  },
  {
    "Compound": "CC(C)c1cc(-c2ccc(F)cc2)nc2cc(C(=O)N3CCNC(=O)C3(C)C)oc12",
    "IC50 [nM]": 23
  },
  {
    "Compound": "CC(=O)N1CCN(C(=O)c2cc3nc(-c4ccc(F)cc4)cc(C(C)C)c3o2)C(C)(C)C1",
    "IC50 [nM]": 48
  },
  {
    "Compound": "CC(C)(C)c1cc(-c2ccc(Cl)c(F)c2)nc2cc(C(=O)N3CCN(c4cc(C(=O)O)ccn4)CC3(C)C)oc12",
    "IC50 [nM]": 1.4
  },
  {
    "Compound": "C[C@H]1CN(C(=O)c2cc3nc(-c4ccc(F)cc4)cc(C4(C)CC4)c3o2)CCN1C(=O)C(O)C1CC1 (some centres unmarked)",
    "IC50 [nM]": 56.5
  }
]

Please report the measured IC50 for CC(C)(C)c1cc(-c2ccc(C(F)(F)F)cc2)nc2cc(C(=O)N3CCN(C(=O)c4nnc[nH]4)CC3(C)C)oc12
4.8

Please report the measured IC50 for Cc1cc(C(=O)N2CCN(C(=O)c3cc4nc(-c5ccc(C(F)(F)F)cc5)cc(C(C)(C)C)c4o3)C(C)(C)C2)[nH]n1
5.6

Please report the measured IC50 for CC(C)c1cc(-c2ccc(F)cc2)nc2cc(C(=O)N3CCN(C(=O)C4(O)CCC4)C[C@@H]3C)oc12
4700

Please report the measured IC50 for CC(C)c1cc(-c2ccc(F)cc2)nc2oc(C(=O)N3CCNC(=O)C3(C)C)nc12
5900

Please report the measured IC50 for CC(C)c1cc(-c2ccc(F)cc2)nc2cc(C(=O)N3CCN(C(=O)[C@H](O)C(C)C)CC3(C)C)oc12
5.3

Please report the measured IC50 for CC(C)c1cc(-c2ccc(F)cc2)nc2cc(C(=O)N3CCN(C(=O)C4(C)CC4)CC3(C)C)oc12
5.6

Please report the measured IC50 for CC(C)c1cc(-c2ccc(F)cc2)nc2cc(C(=O)N3CCN(C(=O)[C@@H](C)O)CC3)oc12
18000

Please report the measured IC50 for CC(C)c1cc(-c2ccc(F)cc2)nc2cc(C(=O)N3CCN(C(=O)C(C)(C)O)[C@@H](C)C3)oc12
3700

Please report the measured IC50 for Cc1n[nH]c(C(=O)N2CCN(C(=O)c3cc4nc(C5CCC(C)(C)CC5)cc(C(C)(C)C)c4o3)C(C)(C)C2)n1
0.8

###

molecular target: PAR2 (HT-29 cells) (Homo sapiens, UniProt P55085); construct: host or cells: HT-29; experiment: Ca FLIPR TETRA assay, ANTAGONIST mode, activator 3.1 U/mL trypsin; assay type: cell-based; settings: HT-29 cells; activator 3.1 U/mL trypsin; Method A: maximal concentration of antagonist 0.1, 1 or 2 μM
Sequence (P55085 26-397): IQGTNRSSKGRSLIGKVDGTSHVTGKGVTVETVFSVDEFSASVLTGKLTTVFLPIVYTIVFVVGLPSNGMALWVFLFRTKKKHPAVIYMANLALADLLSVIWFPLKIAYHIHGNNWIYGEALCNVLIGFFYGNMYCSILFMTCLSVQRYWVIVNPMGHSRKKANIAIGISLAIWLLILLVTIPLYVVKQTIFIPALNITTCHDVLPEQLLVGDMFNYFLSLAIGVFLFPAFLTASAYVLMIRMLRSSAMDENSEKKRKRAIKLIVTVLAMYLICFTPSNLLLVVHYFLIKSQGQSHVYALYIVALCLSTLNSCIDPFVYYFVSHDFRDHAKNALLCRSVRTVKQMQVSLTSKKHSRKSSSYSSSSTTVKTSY
Returns: string. Value is 1 if measured IC50 is below 0.6 nM, and -1 if it is greater than or equal to it.

[
  {
    "Molecule": "COc1ccc(N2CCN(C(=O)c3cc4nc(-c5ccc(Cl)c(F)c5)cc(C(C)(C)C)c4o3)C(C)(C)C2)nc1C(=O)O",
    "Class assignment": 1
  },
  {
    "Molecule": "CC(C)(C)c1cc(-c2ccc(Cl)c(F)c2)nc2cc(C(=O)N3CCN(c4ccncc4C(=O)O)CC3(C)C)oc12",
    "Class assignment": -1
  },
  {
    "Molecule": "Cn1cnnc1N1CCN(C(=O)c2cc3nc(-c4ccc(Cl)cc4)cc(C(C)(C)C)c3o2)C(C)(C)C1",
    "Class assignment": -1
  },
  {
    "Molecule": "CC(C)(C)c1cc(N2CCC[C@@H]2C(F)(F)F)nc2cc(C(=O)N3CCN(C(=O)[C@H]4C[C@](C)(O)C4)CC3(C)C)oc12",
    "Class assignment": -1
  }
]

In the following, a different molecule is considered.
Report whether reported IC50 is lower than 0.6 nM (strictly) for CC(C)(C)c1cc(-c2ccc(Cl)cc2)nc2cc(C(=O)N3CCN(C(=O)CC4(C(=O)O)CCOCC4)CC3(C)C)oc12
-1

###

molecular target: PAR2 (HT-29 cells) (Homo sapiens, UniProt P55085); construct: host or cells: HT-29; assay: Ca FLIPR TETRA assay, ANTAGONIST mode, activator 8 μM SLIGKV; assay type: cell-based; conditions: HT-29 cells; activator 8 μM SLIGKV; Method A: maximal concentration of antagonist 0.1, 1 or 2 μM
Value kind: log10(IC50) (log10 of the value in µM)
Short version: log10 scale, IC50, µM.

See these solved cases before continuing.
[
  {
    "Compound": "CN(CC(=O)O)CC(=O)N1CCN(C(=O)c2cc3nc(-c4ccc(Cl)cc4)cc(C(C)(C)C)c3o2)C(C)(C)C1",
    "log10(IC50)": -0.54
  },
  {
    "Compound": "[2H]C([2H])([2H])N1CCN(C(=O)c2cc3nc(C4CCC(F)(F)CC4)cc(C(C)(C)C)c3o2)C(C)(C)C1=O",
    "log10(IC50)": -0.91
  },
  {
    "Compound": "CC(C)(C)c1cc(-c2ccc(Cl)c(F)c2)nc2cc(C(=O)N3CCN(C(=O)[C@@H]4CC[C@H](C(=O)O)C4)CC3(C)C)oc12",
    "log10(IC50)": -1.72
  },
  {
    "Compound": "CC(C)(C)c1cc(-c2ccc(Cl)cc2)nc2cc(C(=O)N3CCN(C(=O)[C@H]4CC[C@@](C)(C(=O)O)CC4)CC3(C)C)oc12",
    "log10(IC50)": -3.40
  },
  {
    "Compound": "CC(C)(C)c1cc(C2CCC(F)(F)CC2)nc2cc(C(=O)N3CCN(c4cn[nH]c4)C(=O)C3(C)C)oc12",
    "log10(IC50)": -1.21
  }
]

Turning now to a further record.
Please report the measured log10(IC50) for CC(C)(C)c1cc(-c2ccc(Cl)cc2)nc2cc(C(=O)N3CCC(c4ncc(C(=O)O)cn4)CC3(C)C)oc12 (stereo not drawn)
-3.40

###

In this section we review reported pIC50 values for a set of compounds.
target: PAR2 (HT-29 cells) (Homo sapiens, UniProt P55085); construct: host or cells: HT-29; assay: Ca FLIPR TETRA assay, ANTAGONIST mode, activator 8 μM SLIGKV; format: cell-based; conditions: HT-29 cells; activator 8 μM SLIGKV; Method A: maximal concentration of antagonist 0.1, 1 or 2 μM
Remember the convention: pIC50 equals -log10 of concentration in molar.

[
  {
    "Compound": "CC(C)(C)c1cc(-c2ccc(Cl)c(F)c2)nc2cc(C(=O)N3CCN(c4ccc(C(=O)O)c(N)n4)CC3(C)C)oc12",
    "Study target": "PAR2 (HT-29 cells) (Homo sapiens, UniProt P55085)",
    "Value kind": "pIC50",
    "Value reported": 9.52
  },
  {
    "Compound": "CC(C)(C)c1cc(-c2ccc(Cl)cc2)nc2cc(C(=O)N3CCN(c4cnccn4)CC3(C)C)oc12 [Example I-402]",
    "Study target": "PAR2 (HT-29 cells) (Homo sapiens, UniProt P55085)",
    "Value kind": "pIC50",
    "Value reported": 7.68
  },
  {
    "Compound": "Cc1ccc(C(=O)O)c(N2CCN(C(=O)c3cc4nc(-c5ccc(Cl)c(F)c5)cc(C(C)(C)C)c4o3)C(C)(C)C2)n1",
    "Study target": "PAR2 (HT-29 cells) (Homo sapiens, UniProt P55085)",
    "Value kind": "pIC50",
    "Value reported": 8.68
  },
  {
    "Compound": "CC(C)(C)c1cc(N2CC3(C2)CC(F)(F)C3)nc2cc(C(=O)N3CCN(C(=O)[C@H]4C[C@](C)(O)C4)CC3(C)C)oc12",
    "Study target": "PAR2 (HT-29 cells) (Homo sapiens, UniProt P55085)",
    "Value kind": "pIC50",
    "Value reported": 7.12
  },
  {
    "Compound": "Cc1ccnc(N2CCN(C(=O)c3cc4nc(C5CCC(C)(C)CC5)cc(C(C)(C)C)c4o3)C(C)(C)C2=O)n1",
    "Study target": "PAR2 (HT-29 cells) (Homo sapiens, UniProt P55085)",
    "Value kind": "pIC50",
    "Value reported": 8.89
  }
]

Please report the measured pIC50 for CC(C)(C)c1cc(-c2ccc(Cl)cc2)nc2cc(C(=O)N3CCN(C(=O)CC4(C(=O)O)CCOCC4)CC3(C)C)oc12
8.44

src = patent US20180057505A1
